- assayed-system: Lck (Homo sapiens)
- Construct: Kinases are expressed as either kinase domains or full length constructs; made in house
- Sequence (P06239 whole entry, species assumed, the tested form may be a part): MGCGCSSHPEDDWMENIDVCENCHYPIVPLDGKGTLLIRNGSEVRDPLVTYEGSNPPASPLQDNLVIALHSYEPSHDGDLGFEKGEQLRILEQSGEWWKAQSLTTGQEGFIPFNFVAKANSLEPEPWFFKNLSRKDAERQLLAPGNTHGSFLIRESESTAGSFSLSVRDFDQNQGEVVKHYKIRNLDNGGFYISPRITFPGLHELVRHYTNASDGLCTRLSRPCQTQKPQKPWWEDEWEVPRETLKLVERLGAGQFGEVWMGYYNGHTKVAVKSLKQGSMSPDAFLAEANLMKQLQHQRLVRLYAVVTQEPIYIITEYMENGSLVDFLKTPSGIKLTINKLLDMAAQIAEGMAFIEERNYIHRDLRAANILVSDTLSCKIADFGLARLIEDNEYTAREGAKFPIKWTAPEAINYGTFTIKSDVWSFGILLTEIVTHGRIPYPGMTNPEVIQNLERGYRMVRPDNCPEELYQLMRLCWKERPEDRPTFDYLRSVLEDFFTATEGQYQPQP
- assay-text: Kinase inhibition assay (33P transfer), Lck
- Type: biochemical
- measurement-conditions: Table 3, class symbols; read-out: Lck-1
- Text: The inhibitor compounds described herein are screened in the following manner. […] Kinases are expressed as either kinase domains or full length constructs fused to glutathione S-transferase (GST) or polyHistidine tagged fusion proteins in either E. colior Baculovirus-High Five expression systems. […]
The following compounds are listed with their measured IC50 values.

NC(=O)Cc1cccc(Nc2ncnc(-n3c(NCc4ccccc4)nc4ccccc43)n2)c1 [Compound 967] = < 0.888 µM

Given CN(c1cccc(Cl)c1)c1ncnc(Nc2ccc(OCCO)cc2)n1 [Compound 641] , state its recorded IC50.
1.08 to 6.45 µM

Note, next up: c1coc(-c2cc(Nc3ncnc(Nc4nc[nH]n4)n3)n[nH]2)c1 [Compound 889]
> 14.5 µM

Another compound: COc1ccc(Nc2ncnc(N(C)c3ccc([N+](=O)[O-])cc3)n2)cc1OC [Compound 862]
> 11.8 µM

Another compound to look at: COc1cc(Nc2ncnc(-c3cccnc3NCc3ccccc3OC(F)(F)F)n2)cc(OC)c1OC [Compound 842]
> 8.51 µM

How about this compound: C=CCN(c1cccc(Cl)c1)c1ncnc(Nc2cc(OC)cc(OC)c2)n1 [Compound 722]
1.01 to 6.03 µM

Do the same for Clc1cc(Nc2ncnc(Nc3ccc4c(cnn4Cc4ccccc4)c3)n2)cc(Cl)c1Cl [Compound 872] please
> 9.06 µM

Now this one: Cc1nccc(-c2cccc(Nc3ncnc(Nc4ccc5c(cnn5Cc5ccccc5)c4)n3)c2)n1 [Compound 901]
0.824 to 4.94 µM

Another compound: COC(=O)c1cccc(Nc2ncnc(-n3c(NCc4ccccc4)nc4ccccc43)n2)c1 [Compound 1067]
> 9.97 µM

And the next one, COc1ccc(Nc2ncnc(N(C)c3cccc(C)c3)n2)cc1OC [Compound 800] ?
1.14 to 6.83 µM

Here is the next compound: COC(=O)c1ccc(-c2cc(Nc3ncnc(NCCCO)n3)[nH]n2)cc1 [Compound 818]
> 12.2 µM

How about this compound: COc1ccc(Nc2ncnc(N(C)c3ccc(S(=O)(=O)O)cc3)n2)cc1OC [Compound 798]
> 10.8 µM

Follow-up entry: COc1cc(CNc2ncnc(Nc3cc(-c4ccco4)n[nH]3)n2)cc(OC)c1OC [Compound 997]
> 10.6 µM
